Biological target: T1, B7H3 on B7H3-positive human tumour cells (A498, MCF-7, Caki-2, 786-0) (human, UniProt Q5ZPR3 29-534)
T1 sequence (looked up): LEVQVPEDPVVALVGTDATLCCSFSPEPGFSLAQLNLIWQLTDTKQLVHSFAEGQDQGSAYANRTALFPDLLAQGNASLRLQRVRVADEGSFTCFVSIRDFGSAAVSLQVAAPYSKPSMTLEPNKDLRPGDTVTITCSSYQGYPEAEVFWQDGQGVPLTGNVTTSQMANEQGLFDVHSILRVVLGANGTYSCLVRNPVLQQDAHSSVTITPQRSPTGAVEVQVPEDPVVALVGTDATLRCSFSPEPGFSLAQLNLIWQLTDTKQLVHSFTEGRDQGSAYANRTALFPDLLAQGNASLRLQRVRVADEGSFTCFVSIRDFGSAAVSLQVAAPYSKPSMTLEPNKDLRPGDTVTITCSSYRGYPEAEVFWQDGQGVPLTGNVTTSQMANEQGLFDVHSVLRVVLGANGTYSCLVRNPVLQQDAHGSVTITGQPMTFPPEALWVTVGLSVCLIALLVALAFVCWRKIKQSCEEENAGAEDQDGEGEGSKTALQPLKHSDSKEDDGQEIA
Assay: cell-based or functional assay
MEASURED_ENDPOINT: IC50 [M] CTG, MCF-7 cells (B7H3-positive) (M)

INSERT INTO assay_data (binder, experimental_result) VALUES
  ('Example 297L1 (Isomer 1): anti-B7H3 AK1A (TPP-3803) coupled with Intermediate F297 (antibody, human IgG1, kappa, V domains shown, KSP inhibitor-linker (Intermediate F297) on cysteine residues of the partially reduced antibody, sites not given; drug/mAb ratio 2.4) VH: QVKLQQSGAELVKPGASVKLSCKASGYTFTNYDINWVRQRPEQGLEWIGWIFPGDGSTQYNEKFKGKATLTTDTSSSTAYMQLSRLTSEDSAVYFCARQTTATWFAYWGQGTTVTVSS VL: DIELTQSPTTLSVTPGDRVSLSCRASQSISDYLHWYQQKSHESPRLLIKYASQSISGIPSRFSGSGSGSDFTLSINSVEPEDVGVYYCQNGHSFPLTFGAGTKLELKR', '8.93e-09'),
  ('Example 173L1: anti-B7H3 AK1A (TPP-3803) coupled with Intermediate F173 (antibody, human IgG1, kappa, V domains shown, KSP inhibitor-linker (Intermediate F173) on cysteine residues of the partially reduced antibody, sites not given; drug/mAb ratio 3.4) VH: QVKLQQSGAELVKPGASVKLSCKASGYTFTNYDINWVRQRPEQGLEWIGWIFPGDGSTQYNEKFKGKATLTTDTSSSTAYMQLSRLTSEDSAVYFCARQTTATWFAYWGQGTTVTVSS VL: DIELTQSPTTLSVTPGDRVSLSCRASQSISDYLHWYQQKSHESPRLLIKYASQSISGIPSRFSGSGSGSDFTLSINSVEPEDVGVYYCQNGHSFPLTFGAGTKLELKR', '4.98e-09'),
  ('Example 208L2: anti-B7H3 AK1B (TPP-5706) coupled with Intermediate F104 (stirred at pH 8 overnight) (antibody, human IgG1, kappa, V domains shown, KSP inhibitor-linker (Intermediate F104) on cysteine residues of the partially reduced antibody, sites not given; drug/mAb ratio 2.9) VH: QVQLQQPGAELVKPGASVKMSCKASGYTFTIYNVHWIKQTPGQGLEWMGTIFPGNGDTSYNQKFKDKATLTTDKSSKTAYMQLNSLTSEDSAVYYCARWDDGNVGFAHWGQGTLVTVSA VL: DIQMTQSPASLSASVGETVTITCRASENINNYLTWFQQKQGKSPQLLVYHAKTLAEGVPSRFSGSGSGTQFSLKINSLQPEDFGSYYCQHHYGTPPTFGGGTKLEIKR', '2.42e-10');
